Biological target: NOX2 (Homo sapiens, UniProt P04839)
Construct: HL-60 cells, rich in NOX2 expression; endogenous in cells; host or cells: DMSO-differentiated HL-60
Sequence (P04839 2-570 limits assumed): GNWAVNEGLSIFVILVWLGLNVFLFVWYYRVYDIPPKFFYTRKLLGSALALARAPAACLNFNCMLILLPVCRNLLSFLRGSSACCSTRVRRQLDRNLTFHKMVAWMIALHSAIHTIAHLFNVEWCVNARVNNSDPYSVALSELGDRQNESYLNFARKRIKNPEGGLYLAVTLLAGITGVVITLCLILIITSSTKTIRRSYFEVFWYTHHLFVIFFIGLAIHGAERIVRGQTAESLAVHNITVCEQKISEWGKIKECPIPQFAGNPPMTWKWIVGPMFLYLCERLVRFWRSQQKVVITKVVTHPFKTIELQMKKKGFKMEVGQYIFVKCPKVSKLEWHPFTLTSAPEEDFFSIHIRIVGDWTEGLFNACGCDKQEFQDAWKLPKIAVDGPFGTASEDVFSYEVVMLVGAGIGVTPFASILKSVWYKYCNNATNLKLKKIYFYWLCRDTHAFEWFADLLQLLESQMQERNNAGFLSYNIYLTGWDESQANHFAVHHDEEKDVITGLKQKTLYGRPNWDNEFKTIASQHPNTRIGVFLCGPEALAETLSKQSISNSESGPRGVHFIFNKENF
Sequence (P13498 2-195 partner limits assumed): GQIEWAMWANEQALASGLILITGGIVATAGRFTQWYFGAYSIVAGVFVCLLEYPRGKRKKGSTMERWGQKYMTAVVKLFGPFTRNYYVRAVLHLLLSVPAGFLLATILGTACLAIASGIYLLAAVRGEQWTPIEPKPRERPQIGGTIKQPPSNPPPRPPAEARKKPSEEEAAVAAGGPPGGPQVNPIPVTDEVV
Assay: NOX2 HL60 cell-based assay (PMA oxidative burst, L012 chemiluminescence)
Details: HL-60, 100 nM; DMSO-differentiated HL-60 cells, PMA-stimulated
PARAMETER: inhibition at 0.1 µM

Illustrative cases are given below, each with its answer.
compound=COc1ccc(-c2[nH]c3ccsc3c(=O)c2O)cc1 parameter="inhibition at 0.1 µM" endpoint_result="≤ 19%"
compound=COc1cc2[nH]c(-c3ccc(C(F)(F)F)cc3)c(O)c(=O)c2cc1OC parameter="inhibition at 0.1 µM" endpoint_result="≤ 19%"
compound=COc1cc2[nH]c(-c3ccccc3)c(N)c(=O)c2cc1OC parameter="inhibition at 0.1 µM" endpoint_result="50 to 79%"

So, COc1cc2[nH]c(-c3ccccc3C(F)(F)F)c(O)c(=O)c2cc1OC.Cl [Compound 42, hydrochloride] ? Its inhibition at 0.1 µM was 50 to 79%

So, "COc1cc2[nH]c(-c3ccc(Cl)cc3Cl)c(O)c(=O)c2cc1OC" ? Its inhibition at 0.1 µM was ≤ 19%

So, "COc1cc2[nH]c(-c3ccc(C)cc3)c(O)c(=O)c2cc1OC" ? Its inhibition at 0.1 µM was ≤ 19%

So, "COc1ccc2[nH]c(C(=O)c3ccccc3OC)c(O)c(=O)c2c1" ? Its inhibition at 0.1 µM was ≤ 19%

So, "CCOc1ccccc1-c1[nH]c2cc(OC)c(OC)cc2c(=O)c1O" ? Its inhibition at 0.1 µM was ≤ 19%

So, "COc1ccc(-c2[nH]c3cc(C(=O)O)ccc3c(=O)c2O)cc1" ? Its inhibition at 0.1 µM was ≤ 19%

---

Quick reference: inhibition at 0.1 µM of the listed items.
Molecular target: NOX1 (Homo sapiens, UniProt Q9Y5S8)
Construct: endogenous in cells; host or cells: HT29
Sequence (Q9Y5S8 1-564): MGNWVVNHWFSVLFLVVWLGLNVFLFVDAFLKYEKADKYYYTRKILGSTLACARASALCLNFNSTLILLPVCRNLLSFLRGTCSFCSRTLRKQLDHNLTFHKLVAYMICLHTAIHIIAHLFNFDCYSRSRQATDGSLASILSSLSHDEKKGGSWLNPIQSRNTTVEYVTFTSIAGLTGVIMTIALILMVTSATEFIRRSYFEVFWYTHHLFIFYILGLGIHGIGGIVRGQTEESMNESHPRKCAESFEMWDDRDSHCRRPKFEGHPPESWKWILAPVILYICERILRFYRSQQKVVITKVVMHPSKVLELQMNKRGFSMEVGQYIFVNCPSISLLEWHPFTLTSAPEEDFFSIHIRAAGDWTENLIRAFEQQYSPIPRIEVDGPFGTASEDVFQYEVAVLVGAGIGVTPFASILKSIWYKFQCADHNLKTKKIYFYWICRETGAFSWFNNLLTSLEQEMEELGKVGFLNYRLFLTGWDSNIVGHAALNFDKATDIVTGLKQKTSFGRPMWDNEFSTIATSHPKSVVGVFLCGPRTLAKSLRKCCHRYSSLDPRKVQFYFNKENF
Sequence (P13498 2-195 partner limits assumed): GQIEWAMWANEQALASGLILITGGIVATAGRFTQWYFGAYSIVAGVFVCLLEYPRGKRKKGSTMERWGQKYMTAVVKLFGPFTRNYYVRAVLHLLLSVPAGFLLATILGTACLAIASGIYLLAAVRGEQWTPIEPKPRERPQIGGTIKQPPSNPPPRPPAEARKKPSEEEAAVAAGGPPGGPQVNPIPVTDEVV
Test: NOX1 HT29 cell-based assay (luminol/HRP luminescence)
Conditions: HT-29; 100 nM; HT29 cells; DMSO = 0%, GKT137831 = 100%

Illustrative cases are given below, each with its answer.
sample_smiles=COc1cc2[nH]c(-c3ccc(C(F)(F)F)cc3)c(O)c(=O)c2cc1OC assay_system="NOX1 (Homo sapiens, UniProt Q9Y5S8)" parameter="inhibition at 0.1 µM" endpoint_result="≤ 19%"
sample_smiles=COc1cc2c(cc1OC)C(=O)NCC(c1ccccc1Cl)=N2 assay_system="NOX1 (Homo sapiens, UniProt Q9Y5S8)" parameter="inhibition at 0.1 µM" endpoint_result="≤ 19%"
sample_smiles=COc1cc2[nH]c(-c3ccc(F)cc3)c(O)c(=O)c2cc1OC assay_system="NOX1 (Homo sapiens, UniProt Q9Y5S8)" parameter="inhibition at 0.1 µM" endpoint_result="≥ 80%"
sample_smiles=COc1cc2[nH]c(-c3ccccc3OC(F)(F)F)c(O)c(=O)c2cc1OC assay_system="NOX1 (Homo sapiens, UniProt Q9Y5S8)" parameter="inhibition at 0.1 µM" endpoint_result="≥ 80%"

So, "CCOc1ccccc1-c1[nH]c2cc(OC)c(OC)cc2c(=O)c1O" ? Its inhibition at 0.1 µM was ≥ 80%

---

Molecular target: NOX1 (Homo sapiens, UniProt Q9Y5S8)
Construct: endogenous in cells; host or cells: HT29
Assay: NOX1 HT29 cell-based assay (luminol/HRP luminescence)
Settings: HT-29; 100 nM; HT29 cells; DMSO = 0%, GKT137831 = 100%
PARAMETER: inhibition at 0.1 µM

Illustrative cases are given below, each with its answer.
sample_smiles=CCCOc1ccccc1-c1[nH]c2cc(OC)c(OC)cc2c(=O)c1O assay_system="NOX1 (Homo sapiens, UniProt Q9Y5S8)" endpoint_result="≥ 80%"
sample_smiles=COc1cc2[nH]c(-c3ccccc3S(C)(=O)=O)c(O)c(=O)c2cc1OC assay_system="NOX1 (Homo sapiens, UniProt Q9Y5S8)" endpoint_result="≥ 80%"
sample_smiles=COc1ccc(-c2c(O)c(=O)c3ccccc3n2C)cc1 assay_system="NOX1 (Homo sapiens, UniProt Q9Y5S8)" endpoint_result="≤ 19%"

Okay, now this compound:
So, "COc1ccc(-c2[nH]c3ccsc3c(=O)c2O)cc1" ? Its inhibition at 0.1 µM was ≥ 80%

---

Molecular target: NOX4 (Homo sapiens, UniProt Q9NPH5)
Construct: expressed in transfected cells
Sequence (Q9NPH5 whole entry, species assumed, one chain of several): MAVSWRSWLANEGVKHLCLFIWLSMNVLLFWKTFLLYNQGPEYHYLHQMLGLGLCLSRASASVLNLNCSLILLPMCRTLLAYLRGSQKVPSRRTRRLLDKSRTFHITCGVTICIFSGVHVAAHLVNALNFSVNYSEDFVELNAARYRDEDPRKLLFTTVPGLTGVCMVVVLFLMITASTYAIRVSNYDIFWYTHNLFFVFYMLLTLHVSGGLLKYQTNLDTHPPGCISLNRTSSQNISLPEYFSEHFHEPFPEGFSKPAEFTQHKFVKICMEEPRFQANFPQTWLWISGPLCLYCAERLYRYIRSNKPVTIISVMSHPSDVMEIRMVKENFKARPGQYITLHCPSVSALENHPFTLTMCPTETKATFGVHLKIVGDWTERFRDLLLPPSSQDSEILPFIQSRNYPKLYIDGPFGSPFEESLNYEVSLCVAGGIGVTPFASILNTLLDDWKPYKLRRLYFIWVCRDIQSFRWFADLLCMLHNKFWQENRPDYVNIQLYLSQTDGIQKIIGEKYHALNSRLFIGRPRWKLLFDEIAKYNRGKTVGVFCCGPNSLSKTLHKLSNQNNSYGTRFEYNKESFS
Assay: NOX4 HEK293 overexpression cell-based assay (Amplex Red H2O2)
Conditions: HEK293, 1000 nM; HEK293 cells stably overexpressing NOX4; DMSO = 0, GKT137831 = 100
Quick reference: inhibition at 1 µM of the listed items.

Illustrative cases are given below, each with its answer.
compound="COc1cc2[nH]c(-c3ccccc3[N+](=O)[O-])c(O)c(=O)c2cc1OC [Compound 29, 2,2,2-trifluoroacetate]" parameter="inhibition at 1 µM" endpoint_result="50 to 79%"
compound=COc1cc2[nH]c(-c3ccccc3C)c(O)c(=O)c2cc1OC parameter="inhibition at 1 µM" endpoint_result="50 to 79%"
compound=COc1cc2[nH]c(-c3ccc(C(F)(F)F)cc3)c(O)c(=O)c2cc1OC parameter="inhibition at 1 µM" endpoint_result="≥ 80%"
compound=COc1cc2[nH]c(-c3ccccc3Cl)c(N)c(=O)c2cc1OC parameter="inhibition at 1 µM" endpoint_result="50 to 79%"
compound=COc1cc2[nH]c(-c3ccccc3S(C)(=O)=O)c(O)c(=O)c2cc1OC parameter="inhibition at 1 µM" endpoint_result="50 to 79%"

Okay, now this compound:
So, Br.O=c1c(O)c(-c2ccc(O)cc2)[nH]c2cc(O)c(O)cc12 [Compound 3, hydrobromide] ? Its inhibition at 1 µM was 50 to 79%

Recorded values, source patent US11661400B2.
